Tested on: Key Grass and Sedge Weeds as well as Grass Crops
run_description: Post-emergent Test II herbicidal activity (Table 6)
Assay type: in vivo
cond: post-emergence, 336 h, CYPES: yellow nutsedge (Cyperus esculentus), 70 g ai/ha, read-out: Visual Growth Reduction (%) 14 Days After Application, CYPES
pest or weed control at 70 g/ha by entry:

Value lookup for pest or weed control at 70 g/ha; key = Nc1c(F)c(-c2ccc(I)c(F)c2)nc(C(=O)O)c1Cl 45 to 59%

Can you check Nc1c(F)c(-c2ccc(C(F)(F)F)c(F)c2F)nc(C(=O)O)c1Cl next? 85 to 94%

Can you check C#Cc1ccc(-c2nc(N)c(OC)c(C(=O)O)n2)c(F)c1 next? 0 to 29%

Can you check COC(=O)c1nc(-c2ccc(C)c(F)c2F)c(F)c(N)c1Cl next? 45 to 59%

Can you check Nc1c(F)c(-c2ccc(I)c(F)c2F)nc(C(=O)O)c1Cl next? 0 to 29%
